Experiment: Primary fluorescence-based thiol-reactive (MSTI) qHTS assay for identification of artifact compounds. (AID 1845221); note: nearly all actives have a fitted effect of over 65% in size
Settings: MSTI thiol-reactivity probe, 1 h; series mostly up to 53.8 µM
Records with an inconclusive call do not appear. Activity calls are given as the source filed them. Calls come from the whole dose curve; as a rule, active = well fitted inhibition curve with a large enough effect; inconclusive = small, poorly fitted or top-dose-only effect; inactive = no such curve, though single readings can be large or run the other way.
Classes used: true (1) (active), false (0) (inactive)

molecule: COc1cc(C2CC(=O)Nc3c2cc(Br)c2ccccc32)cc(OC)c1OC (centres undefined)
group_label: false (0)
--
molecule: O=C(OCc1ccccc1O[C@@H]1O[C@H](CO)[C@@H](O)[C@H](O)[C@H]1O)C1(O)C=CCCC1O (some centres undefined)
group_label: true (1)
--
molecule: C/C=C/C=C/C(O)=C1/C(=O)[C@]2(C)C(=O)[C@@](C)(O)[C@H]1[C@H]([C@@]1(C)OC(=O)C(C)=C1O)[C@H]2C(=O)CC/C=C/C
group_label: true (1)
--
molecule: CC1(C)CC[C@]2(C(=O)O)CC[C@]3(C)C(=CCC4[C@@]5(C)C[C@@H](O)[C@H](O)[C@@](C)(CO)C5CC[C@]43C)C2C1 (some centres undefined)
group_label: false (0)
--
molecule: CCC[C@H](N[C@@H](C)C(=O)N1[C@H](C(=O)O)C[C@@H]2CCCC[C@@H]21)C(=O)O
group_label: false (0)
--
molecule: CC1(C)CCCC2(C)c3c4c(c(=O)oc(=O)c3=CCC12)=CCC1C(C)(C)CCCC41C (centres undefined)
group_label: false (0)
--
molecule: CC(=O)NC(C(=O)OC1CCC(C)(C)C2CC=C3C(=O)OCC3C12C)C(C)C (centres undefined)
group_label: false (0)
--
molecule: CC1C(O)C(O)C2C(C(=O)OCCc3ccc(O)cc3)=COC(O[C@@H]3O[C@H](CO)[C@@H](O)[C@H](O)[C@H]3O)C12 (some centres undefined)
group_label: true (1)
--
molecule: COc1ccc(C2COc3cc(O)ccc3C2)c(O)c1OC (centres undefined)
group_label: false (0)
--
molecule: O=c1[nH]ccc2nc(-c3ccc(CN4CCC(c5nc(-c6ccccn6)n[nH]5)CC4)cc3)c(-c3ccccc3)cc12
group_label: false (0)
--
molecule: CC(=O)OC(C)(C)/C=C/C(=O)[C@](C)(O)C1[C@H](O)C[C@@]2(C)[C@@H]3CC=C4[C@@H](C[C@H](O[C@@H]5O[C@H](CO)[C@@H](O)[C@H](O)[C@H]5O)C(=O)C4(C)C)[C@]3(C)C(=O)C[C@]12C (some centres undefined)
group_label: false (0)
--
molecule: CC1CC(=O)C2=C(O1)OC1(C)CCC3C(C)(C)C4OC4C(=O)C3(C)C1C2 (centres undefined)
group_label: true (1)
--
molecule: CC(=O)OCC1=C[C@@H]2OC(=O)C3=CO[C@@H](O[C@@H]4O[C@H](CO)[C@@H](O)[C@H](O)[C@H]4O)[C@H]1[C@@H]32
group_label: false (0)
--
molecule: CCC(C)/C=C(C)/C=C/C(=O)C1CCC(O)C(C)(O)C1=O (centres undefined)
group_label: true (1)
